System: RAW264.7
assay remarks: Cytotoxicity against mouse RAW264.7 cells at 100 uM after 8 hrs by MTT assay
Assay type: cell-based
condition set: raw264.7, 8 h
measured endpoint: Activity

Consider the reported Activity for these molecules:
CC1(C)CC[C@]2(C(=O)O)CC[C@]3(C)C(=CC[C@@H]4[C@@]5(C)CC[C@H](O)C(C)(C)[C@@H]5CC[C@]43C)[C@@H]2C1
Non-toxic
CC1(C)[C@@H](O)CC[C@]2(C)C3=C(CC[C@@H]12)[C@@]1(C)CC[C@@]2(C)CC[C@@](C)(C(=O)O)C[C@H]2[C@]1(C)CC3
Non-toxic
CC1(C)[C@@H](O)CC[C@]2(C)[C@H]3C(=O)C=C4[C@@H]5C[C@@](C)(C(=O)O)CC[C@]5(C)CC[C@@]4(C)[C@]3(C)CC[C@@H]12
Toxic
C=C(C)[C@@H]1CC[C@]2(C(=O)O)CC[C@]3(C)[C@H](CC[C@@H]4[C@@]5(C)CC[C@H](O)C(C)(C)[C@@H]5CC[C@]43C)[C@@H]12
Toxic

Entry C[C@H]1[C@H](C)CC[C@]2(C(=O)O)CC[C@]3(C)C(=CC[C@@H]4[C@@]5(C)CC[C@H](O)C(C)(C)[C@@H]5CC[C@]43C)[C@H]12 , Activity reported as Toxic
